Molecular target: V-ATPase (Gallus gallus)
Assay: Compound was tested for inhibition of V-ATPase from Chicken osteoclasts (cOc)
property.measured: pIC50
// returns pIC50 (minus log10 of molar concentration), number only

Would you mind telling me what pIC50 value was observed for COC(=O)/C(=C\C=C\c1cc2cc(Cl)c(Cl)cc2[nH]1)OC ? 5.72
